src = patent US20220362386A1

# measurement-description: In-vitro metabolism of LDAA compounds using liver microsomes
# Format: in vitro ADME, human
# settings: incubation time 60 minutes; 1.0E−07M
Where a name gives a salt, the structure may show the parent alone. Non-standard residues stand in square brackets, D forms with d. Residues, ends and D or L forms follow the SMILES beside them. Dopa = N[C@@H](Cc1ccc(O)c(O)c1)C(=O)O
Item-by-item account of % Compound Remaining Mean
// return numeric value only (unit: %, not printed)

The cases that follow already have their % Compound Remaining Mean on record.
INSERT INTO measurements (compound, readout_value) VALUES
  ('N=C(N)NCCC[C@H](NC(=O)[C@@H](N)Cc1ccc(O)c(O)c1)C(=O)O [LD-Arg TFA salt, Levodopa Arginine TFA Salt]', 38),
  ('N[C@@H](Cc1ccc(O)c(O)c1)C(=O)N[C@@H](Cc1ccc(O)cc1)C(=O)O [LD-Tyr TFA salt, Levodopa Tyrosine TFA Salt] (H-[Dopa]-Tyr-OH)', 78);

# input for lookup
Query :: Answer with reported % Compound Remaining Mean of N[C@@H](Cc1ccc(O)c(O)c1)C(=O)N[C@@H](Cc1c[nH]c2ccccc12)C(=O)O [LD-Trp TFA salt, Levodopa Tryptophan] (H-[Dopa]-Trp-OH)
Result :: 53

* * *

# reported % Protein Bound 2nd; entries follow
# System: human plasma
# measurement-description: Protein binding, solid phase extraction (SPE) method
# Assay type: in vitro ADME
# settings: 1.0E−05M; SPE sample preparation
Where a name gives a salt, the structure may show the parent alone. Non-standard residues stand in square brackets, D forms with d. Residues, ends and D or L forms follow the SMILES beside them. Dopa = N[C@@H](Cc1ccc(O)c(O)c1)C(=O)O
Enter your answer as a number in %; do not include the unit.

Known results for compounds:
INSERT INTO measurements (compound, target_system, readout_value) VALUES
  ('N=C(N)NCCC[C@H](NC(=O)[C@@H](N)Cc1ccc(O)c(O)c1)C(=O)O [LD-Arg TFA salt, Levodopa Arginine TFA Salt]', 'human plasma', 91.2),
  ('NCCCC[C@H](NC(=O)[C@@H](N)Cc1ccc(O)c(O)c1)C(=O)O [LD-Lys TFA salt, Levodopa Lysine TFA Salt] (H-[Dopa]-Lys-OH)', 'human plasma', 18.7),
  ('N[C@@H](Cc1ccc(O)c(O)c1)C(=O)N[C@@H](Cc1ccc(O)cc1)C(=O)O [LD-Tyr TFA salt, Levodopa Tyrosine TFA Salt] (H-[Dopa]-Tyr-OH)', 'human plasma', 32.5),
  ('N[C@@H](Cc1ccc(O)c(O)c1)C(=O)N[C@@H](CCC(=O)O)C(=O)O [LD-Glu TFA salt, Levodopa Glutamic Acid TFA Salt] (H-[Dopa]-Glu-OH)', 'human plasma', 49.4),
  ('N[C@@H](Cc1ccc(O)c(O)c1)C(=O)N[C@@H](CC(=O)O)C(=O)O [LD-Asp TFA salt, Levodopa Aspartic Acid] (H-[Dopa]-Asp-OH)', 'human plasma', 34.1);

Switching to the query record.
Query :: Jot down % Protein Bound 2nd (human plasma) of N[C@@H](Cc1ccc(O)c(O)c1)C(=O)O [LD (control), L-3,4-dihydroxyphenylalanine, reference compound] .
Result :: 20.2

* * *

# measurement-description: In-vitro metabolism of LDAA compounds using liver microsomes
# Assay type: in vitro ADME, human
# settings: incubation time 45 minutes; 1.0E−07M
Where a name gives a salt, the structure may show the parent alone. Non-standard residues stand in square brackets, D forms with d. Residues, ends and D or L forms follow the SMILES beside them. Dopa = N[C@@H](Cc1ccc(O)c(O)c1)C(=O)O
Reported % Compound Remaining 1st is given for each of the following compounds.
Supply the numeric figure in %, leaving out any unit text.

INSERT INTO assay_data (compound, unit_annotation, readout_value) VALUES
  ('N[C@@H](Cc1ccc(O)c(O)c1)C(=O)N[C@@H](Cc1c[nH]c2ccccc12)C(=O)O [LD-Trp TFA salt, Levodopa Tryptophan] (H-[Dopa]-Trp-OH)', '%', 70.5),
  ('N[C@@H](Cc1ccc(O)c(O)c1)C(=O)N[C@@H](Cc1ccc(O)cc1)C(=O)O [LD-Tyr TFA salt, Levodopa Tyrosine TFA Salt] (H-[Dopa]-Tyr-OH)', '%', 71.4),
  ('N[C@@H](Cc1ccc(O)c(O)c1)C(=O)NCC(=O)O [LD-Gly TFA salt, Levodopa Glycine TFA Salt]', '%', 57.5),
  ('NC(=O)CC[C@H](NC(=O)[C@@H](N)Cc1ccc(O)c(O)c1)C(=O)O [LD-Gln TFA salt, Levodopa Glutamine TFA Salt] (H-[Dopa]-Gln-OH)', '%', 81.8),
  ('N[C@@H](Cc1ccc(O)c(O)c1)C(=O)O [LD (control), L-3,4-dihydroxyphenylalanine, reference compound]', '%', 80.1);

Query :: Recall and state the measured % Compound Remaining 1st for N[C@@H](CSC[C@H](NC(=O)[C@@H](N)Cc1ccc(O)c(O)c1)C(=O)O)C(=O)O (single isomer, unassigned; peak 2) [LD-LA2 TFA salt, Levodopa Lanthionine Peak 2 TFA Salt] .
Result :: 97.5

* * *

# measurement-description: Comparative formulation tests, physical stability (Tables 32a-c, 33a-c)
# Type: physicochemical
# settings: NB 144-15, ~0.1% Asc + ~0.1% NAC; LDAA TFA salt/CD formulation; Day 5, room temperature after two days at 2-8° C.
Where a name gives a salt, the structure may show the parent alone. Non-standard residues stand in square brackets, D forms with d. Residues, ends and D or L forms follow the SMILES beside them. Dopa = N[C@@H](Cc1ccc(O)c(O)c1)C(=O)O
assay-endpoint: Physical stability (visual), Day 5

Below, 5 compounds whose answers are already recorded.
INSERT INTO results (compound, readout_value) VALUES
  ('N[C@@H](Cc1ccc(O)c(O)c1)C(=O)N[C@@H](Cc1ccc(O)cc1)C(=O)O [LD-Tyr TFA salt, Levodopa Tyrosine TFA Salt] (H-[Dopa]-Tyr-OH)', 'Precipitated'),
  ('NCCCC[C@H](NC(=O)[C@@H](N)Cc1ccc(O)c(O)c1)C(=O)O [LD-Lys TFA salt, Levodopa Lysine TFA Salt] (H-[Dopa]-Lys-OH)', 'Precipitated'),
  ('N[C@@H](CSC[C@@H](NC(=O)[C@@H](N)Cc1ccc(O)c(O)c1)C(=O)O)C(=O)O (single isomer, unassigned; peak 1) [LD-LA1 TFA salt, Levodopa Lanthionine Peak 1 TFA Salt]', 'Stable'),
  ('N[C@@H](Cc1ccc(O)c(O)c1)C(=O)N[C@@H](CC(=O)O)C(=O)O [LD-Asp TFA salt, Levodopa Aspartic Acid] (H-[Dopa]-Asp-OH)', 'Stable'),
  ('N=C(N)NCCC[C@H](NC(=O)[C@@H](N)Cc1ccc(O)c(O)c1)C(=O)O [LD-Arg TFA salt, Levodopa Arginine TFA Salt]', 'Stable');

Query :: Provide only the value of recorded Physical stability (visual), Day 5 for N[C@@H](Cc1ccc(O)c(O)c1)C(=O)N[C@@H](Cc1c[nH]c2ccccc12)C(=O)O [LD-Trp TFA salt, Levodopa Tryptophan] (H-[Dopa]-Trp-OH)
Result :: Stable

* * *

# measurement-description: Protein binding, solid phase extraction (SPE) method
# Type: in vitro ADME, human
# settings: human, human plasma, 1.0E−05M; SPE sample preparation; read-out: % Recovery 2nd
Where a name gives a salt, the structure may show the parent alone. Non-standard residues stand in square brackets, D forms with d. Residues, ends and D or L forms follow the SMILES beside them. Dopa = N[C@@H](Cc1ccc(O)c(O)c1)C(=O)O
Below is a list of entries, each paired with its recorded recovery at 10 μM value.
Number in %, nothing else.

Example entries and their recorded answers appear below.
INSERT INTO results (compound, assay_endpoint, readout_value) VALUES
  ('NCCCC[C@H](NC(=O)[C@@H](N)Cc1ccc(O)c(O)c1)C(=O)O [LD-Lys TFA salt, Levodopa Lysine TFA Salt] (H-[Dopa]-Lys-OH)', 'recovery at 10 μM', 63),
  ('N[C@@H](CSC[C@H](NC(=O)[C@@H](N)Cc1ccc(O)c(O)c1)C(=O)O)C(=O)O (single isomer, unassigned; peak 2) [LD-LA2 TFA salt, Levodopa Lanthionine Peak 2 TFA Salt]', 'recovery at 10 μM', 46);

Query :: Give the reported value of recovery at 10 μM for this record: N=C(N)NCCC[C@H](NC(=O)[C@@H](N)Cc1ccc(O)c(O)c1)C(=O)O [LD-Arg TFA salt, Levodopa Arginine TFA Salt]
Result :: 79

Query :: Note down recovery at 10 μM recorded for N[C@@H](Cc1ccc(O)c(O)c1)C(=O)N[C@@H](Cc1ccc(O)cc1)C(=O)O [LD-Tyr TFA salt, Levodopa Tyrosine TFA Salt] (H-[Dopa]-Tyr-OH)
Result :: 72

Query :: Specify reported recovery at 10 μM for the compound shown: N[C@@H](Cc1ccc(O)c(O)c1)C(=O)N[C@@H](CCC(=O)O)C(=O)O [LD-Glu TFA salt, Levodopa Glutamic Acid TFA Salt] (H-[Dopa]-Glu-OH)
Result :: 115

Query :: Kindly indicate its recorded recovery at 10 μM. Item: N[C@@H](Cc1ccc(O)c(O)c1)C(=O)N[C@@H](CC(=O)O)C(=O)O [LD-Asp TFA salt, Levodopa Aspartic Acid] (H-[Dopa]-Asp-OH)
Result :: 64

Query :: Supply measured recovery at 10 μM of N[C@@H](Cc1ccc(O)c(O)c1)C(=O)O [LD (control), L-3,4-dihydroxyphenylalanine, reference compound] in your reply.
Result :: 78
